Molecular target: CB1 (CNR1) (Homo sapiens, UniProt P21554)
Sequence (P21554 whole entry): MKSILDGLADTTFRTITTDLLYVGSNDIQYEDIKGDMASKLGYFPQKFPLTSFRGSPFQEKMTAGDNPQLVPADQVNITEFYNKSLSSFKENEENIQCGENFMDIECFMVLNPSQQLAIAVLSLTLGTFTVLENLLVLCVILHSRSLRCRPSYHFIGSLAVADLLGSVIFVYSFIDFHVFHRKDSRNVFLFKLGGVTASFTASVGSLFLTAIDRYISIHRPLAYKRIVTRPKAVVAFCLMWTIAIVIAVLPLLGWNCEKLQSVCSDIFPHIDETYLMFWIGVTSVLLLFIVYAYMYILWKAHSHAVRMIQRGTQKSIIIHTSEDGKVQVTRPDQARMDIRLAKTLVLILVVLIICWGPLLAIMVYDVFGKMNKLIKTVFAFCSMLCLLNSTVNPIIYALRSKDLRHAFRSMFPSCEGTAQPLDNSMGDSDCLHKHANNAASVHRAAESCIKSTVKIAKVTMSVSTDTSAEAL
Assay: cAMP CNR1 Hunter cell line antagonist assay (CB1 assay)
Details: antagonist mode, cAMP CNR1 Hunter cells, EC80 agonist; read-out: CB1 assay, Efficacy (IC50)
Experimental: cAMP CNR1 Hunter cell line (Eurofins DiscoveryX) were expanded from freezer stocks and seeded in a total volume of 20 μL into white walled, 384-well microplates and incubated at 37° C. for the appropriate time prior to testing. […] Microplates were read following signal generation with a PerkinElmer Envision™ instrument for chemiluminescent signal detection. Compound activity (IC50) was analyzed using CBIS data analysis suite (ChemInnovation, CA).
measuredMetric: IC50

Take a look at these entries with their results.
[[record]]
compound = "Cc1ccc(NS(=O)(=O)c2cc(Br)cc3c2OC(C)C(=O)N3C)cc1 (stereo not shown) [BC19906]"
reportedresult = "≥ 25 µM"

[[record]]
compound = "COc1ccc(NS(=O)(=O)c2cc(Br)cc3c2OCCC(=O)N3)cc1Cl [BC19688]"
reportedresult = "1 to 25 µM"

[[record]]
compound = "CC1Oc2c(cc(Cl)cc2S(=O)(=O)Nc2ccc(F)cc2Cl)NC1=O (stereo not shown) [BC19720]"
reportedresult = "≥ 25 µM"


QUERY: Write IC50 of CC(C)CC1Oc2cc(S(=O)(=O)Nc3ccc(F)c(F)c3)c(Br)cc2NC1=O (stereo not shown) [BC19760] ; system used: CB1 (CNR1) (Homo sapiens, UniProt P21554)
RESULT: 1 to 25 µM

QUERY: Enter IC50 (test system CB1 (CNR1) (Homo sapiens, UniProt P21554)) for Cc1ccc(NS(=O)(=O)c2cc3c(cc2Br)NC(=O)CCO3)cc1F [BC19653]
RESULT: ≥ 25 µM

QUERY: Specify IC50 for CCC1Oc2c(cc(Cl)cc2S(=O)(=O)Nc2ccccc2)NC1=O (stereo not shown) [BC19738] , system CB1 (CNR1) (Homo sapiens, UniProt P21554).
RESULT: < 1 µM

QUERY: Specify the recorded IC50 for CC1Oc2c(cc(Br)cc2S(=O)(=O)NC2CCC(O)CC2)NC1=O (stereo not shown) [BC19366] , system: CB1 (CNR1) (Homo sapiens, UniProt P21554).
RESULT: ≥ 25 µM

QUERY: Please indicate recorded IC50 of CCC1Oc2c(cc(Cl)cc2S(=O)(=O)Nc2cccc(Cl)c2)NC1=O (stereo not shown) [BC19752] measured with CB1 (CNR1) (Homo sapiens, UniProt P21554).
RESULT: 1 to 25 µM

QUERY: Please tell me the measured IC50 for CC(C)CNS(=O)(=O)c1cc(Br)cc2c1OC(C)C(=O)N2 (stereo not shown) [BC19227] ; system: CB1 (CNR1) (Homo sapiens, UniProt P21554).
RESULT: ≥ 25 µM

QUERY: System CB1 (CNR1) (Homo sapiens, UniProt P21554). Read-out IC50. Item CC1Oc2cc(S(=O)(=O)Nc3ccc(F)cc3Cl)c(Br)cc2NC1=O (stereo not shown) [BC19285] . Report value.
RESULT: 1 to 25 µM

All figures here come from patent US20240000806A1.
